# PROTOCOL DETAILS: Pharmacokinetics determination
# Type: in vivo
# CONDITIONS: female, ICR, mouse, plasma, iv; mice
# Method: Pharmacokinetics determination. […] Blood samples were extracted from the jugular vein at intervals of 0.083, 0.25, 0.5, 1, 2, 4, 8, and 24h post-treatment, respectively. The plasma was separated following centrifugation at 6800 × g for 6 min. Concentrations of these compounds in the plasma were quantified by using the LC-MS/MS-04 instrument (TQ4000, JEOL, Japan), and pharmacokinetic parameters were calculated by using Phoenix WinNonlin 7.0 software (Certara, Princeton, NJ, USA)^37.
PROPERTY: C0 (µg/mL)
Please reply with the bare figure in µg/mL and do not write the unit itself.

The molecule listed as Cc1nc2c(-c3ccc(Cl)cc3)cnn2c(O)c1Cc1ccccc1 [STK848198] shows C0 equal to 51.9

---

# PROTOCOL DETAILS: Pharmacokinetics determination
# Format: in vivo
# CONDITIONS: female, ICR, mouse, plasma, po; mice
PROPERTY: Cmax (ng/mL)
Please reply with the bare figure in ng/mL and do not write the unit itself.

The molecule listed as Cc1nc2c(-c3ccc(Cl)cc3)cnn2c(O)c1Cc1ccccc1 [STK848198] shows Cmax equal to 18700

---

# PROTOCOL DETAILS: Pharmacokinetics determination
# Assay type: in vivo
# CONDITIONS: female, ICR, mouse, plasma, po; mice, p.o.; read-out: T1/2 (converted)
PROPERTY: half-life (h)
Please reply with the bare figure in h and do not write the unit itself.

The molecule listed as "Cc1nc2c(-c3ccc(Cl)cc3)cnn2c(O)c1Cc1ccccc1" shows half-life equal to 3.43

---

# PROTOCOL DETAILS: Pharmacokinetics determination
# Assay type: in vivo
# Set-up: dose or concentration left out as unconfirmed
# CONDITIONS: female, ICR, mouse, plasma, ip; mice
PROPERTY: bioavailability

The compound listed as "Cc1nc2c(-c3ccc(Cl)cc3)cnn2c(O)c1Cc1ccccc1" shows bioavailability equal to 87%

---

# PROTOCOL DETAILS: Pharmacokinetics determination
# Format: in vivo
# Design: dose or concentration left out as unconfirmed
# CONDITIONS: female, ICR, mouse, plasma, po; mice, p.o.; read-out: MRT(0-∞)
# Procedure: Pharmacokinetics determination. […] Blood samples were extracted from the jugular vein at intervals of 0.083, 0.25, 0.5, 1, 2, 4, 8, and 24h post-treatment, respectively. The plasma was separated following centrifugation at 6800 × g for 6 min. Concentrations of these compounds in the plasma were quantified by using the LC-MS/MS-04 instrument (TQ4000, JEOL, Japan), and pharmacokinetic parameters were calculated by using Phoenix WinNonlin 7.0 software (Certara, Princeton, NJ, USA)^37.
PROPERTY: MRT inf (h)
Please reply with the bare figure in h and do not write the unit itself.

The molecule listed as Cc1nc2c(-c3ccc(Cl)cc3)cnn2c(O)c1Cc1ccccc1 [STK848198] shows MRT inf equal to 2.21

---

# PROTOCOL DETAILS: Pharmacokinetics determination
# Assay type: in vivo
# Set-up: dose or concentration left out as unconfirmed
# CONDITIONS: female, ICR, mouse, plasma, iv; mice, i.v.; read-out: Vss
PROPERTY: Vd

The compound listed as "Cc1nc2c(-c3ccc(Cl)cc3)cnn2c(O)c1Cc1ccccc1" shows Vd equal to 0.38 L/kg

---

# PROTOCOL DETAILS: Pharmacokinetics determination
# Format: in vivo
# Parameters: dose or concentration left out as unconfirmed
# CONDITIONS: female, ICR, mouse, plasma, ip; mice, i.p.; read-out: MRT(0-∞)
PROPERTY: MRT inf (h)
Please reply with the bare figure in h and do not write the unit itself.

The compound listed as "Cc1nc2c(-c3ccc(Cl)cc3)cnn2c(O)c1Cc1ccccc1" shows MRT inf equal to 1.17

---

# PROTOCOL DETAILS: Pharmacokinetics determination
# Type: in vivo
# CONDITIONS: female, ICR, mouse, plasma, iv; mice, i.v.; read-out: T1/2 (converted)
PROPERTY: half-life (h)
Please reply with the bare figure in h and do not write the unit itself.

The compound listed as "Cc1nc2c(-c3ccc(Cl)cc3)cnn2c(O)c1Cc1ccccc1" shows half-life equal to 2.54

---

# PROTOCOL DETAILS: Pharmacokinetics determination
# Type: in vivo
# Set-up: dose or concentration left out as unconfirmed
# CONDITIONS: female, ICR, mouse, plasma, sc; mice, s.c.; read-out: MRT(0-t)
PROPERTY: MRT last
Write down the value, and be sure its unit follows.

The molecule listed as Cc1nc2c(-c3ccc(Cl)cc3)cnn2c(O)c1Cc1ccccc1 [STK848198] shows MRT last equal to 3.5 h

---

# PROTOCOL DETAILS: Pharmacokinetics determination
# Format: in vivo
# Design: dose or concentration left out as unconfirmed
# CONDITIONS: female, ICR, mouse, plasma, ip; mice
PROPERTY: AUC(0-t) (ng·h/mL)
Please reply with the bare figure in ng·h/mL and do not write the unit itself.

The molecule listed as "Cc1nc2c(-c3ccc(Cl)cc3)cnn2c(O)c1Cc1ccccc1" shows AUC(0-t) equal to 38300

---

# PROTOCOL DETAILS: Pharmacokinetics determination
# Assay type: in vivo
# CONDITIONS: female, ICR, mouse, plasma, other: range over s.c., i.v., i.p. and p.o., 30 mg/kg; mice, all the administration routes; read-out: half-life (range)
PROPERTY: half-life

The molecule listed as "Cc1nc2c(-c3ccc(Cl)cc3)cnn2c(O)c1Cc1ccccc1" shows half-life equal to 2.54 to 7.65 h

---

# PROTOCOL DETAILS: Pharmacokinetics determination
# Type: in vivo
# Parameters: dose or concentration left out as unconfirmed
# CONDITIONS: female, ICR, mouse, plasma, sc; mice
PROPERTY: AUC(0-inf) (ng·h/mL)
Please reply with the bare figure in ng·h/mL and do not write the unit itself.

The compound listed as "Cc1nc2c(-c3ccc(Cl)cc3)cnn2c(O)c1Cc1ccccc1" shows AUC(0-inf) equal to 18000

---

# PROTOCOL DETAILS: Pharmacokinetics determination
# Format: in vivo
# Design: dose or concentration left out as unconfirmed
# CONDITIONS: female, ICR, mouse, plasma, iv; mice, i.v.; read-out: Vz
# Experimental: Pharmacokinetics determination. […] Blood samples were extracted from the jugular vein at intervals of 0.083, 0.25, 0.5, 1, 2, 4, 8, and 24h post-treatment, respectively. The plasma was separated following centrifugation at 6800 × g for 6 min. Concentrations of these compounds in the plasma were quantified by using the LC-MS/MS-04 instrument (TQ4000, JEOL, Japan), and pharmacokinetic parameters were calculated by using Phoenix WinNonlin 7.0 software (Certara, Princeton, NJ, USA)^37.
PROPERTY: Vd (L/kg)
Please reply with the bare figure in L/kg and do not write the unit itself.

The compound listed as Cc1nc2c(-c3ccc(Cl)cc3)cnn2c(O)c1Cc1ccccc1 [STK848198] shows Vd equal to 1.66

---

# PROTOCOL DETAILS: Pharmacokinetics determination
# Assay type: in vivo
# CONDITIONS: female, ICR, mouse, plasma, ip; mice, i.p.; read-out: T1/2 (converted)
PROPERTY: half-life (h)
Please reply with the bare figure in h and do not write the unit itself.

The compound listed as "Cc1nc2c(-c3ccc(Cl)cc3)cnn2c(O)c1Cc1ccccc1" shows half-life equal to 3.15

---

# PROTOCOL DETAILS: Pharmacokinetics determination
# Type: in vivo
# Parameters: dose or concentration left out as unconfirmed
# CONDITIONS: female, ICR, mouse, plasma, sc; mice
PROPERTY: bioavailability (%)
Please reply with the bare figure in % and do not write the unit itself.

The molecule listed as "Cc1nc2c(-c3ccc(Cl)cc3)cnn2c(O)c1Cc1ccccc1" shows bioavailability equal to 40.9

---

# PROTOCOL DETAILS: Pharmacokinetics determination
# Format: in vivo
# Parameters: dose or concentration left out as unconfirmed
# CONDITIONS: female, ICR, mouse, plasma, po; mice
# Method: Pharmacokinetics determination. […] Blood samples were extracted from the jugular vein at intervals of 0.083, 0.25, 0.5, 1, 2, 4, 8, and 24h post-treatment, respectively. The plasma was separated following centrifugation at 6800 × g for 6 min. Concentrations of these compounds in the plasma were quantified by using the LC-MS/MS-04 instrument (TQ4000, JEOL, Japan), and pharmacokinetic parameters were calculated by using Phoenix WinNonlin 7.0 software (Certara, Princeton, NJ, USA)^37.
PROPERTY: AUC(0-t) (ng·h/mL)
Please reply with the bare figure in ng·h/mL and do not write the unit itself.

The compound listed as "Cc1nc2c(-c3ccc(Cl)cc3)cnn2c(O)c1Cc1ccccc1" shows AUC(0-t) equal to 17800

---

# PROTOCOL DETAILS: Pharmacokinetics determination
# Assay type: in vivo
# Set-up: dose or concentration left out as unconfirmed
# CONDITIONS: female, ICR, mouse, plasma, ip; mice
PROPERTY: AUC(0-inf)

The compound listed as "Cc1nc2c(-c3ccc(Cl)cc3)cnn2c(O)c1Cc1ccccc1" shows AUC(0-inf) equal to 38300 ng·h/mL
